Molecular target: Protein farnesyltransferase (Homo sapiens, UniProt P49354+P49356)
Assay: In vitro inhibition of human Farnesyltransferase
Format: protein-complex assay
pIC50: −log10 of the molar value.
Binary classification by pIC50, with 7 as an inclusive lower bound for condition met; all other cases are condition not met.

**Query** Does pIC50 meet or surpass 7 for COc1cc(C)cc2c1C(C1CCN(C(=O)Cc3cc[n+]([O-])cc3)CC1)c1ncc(C3CC3)cc1CC2 (stereo unspecified) ?
**Result** condition not met

**Query** Now consider COc1cc(C)cc2c1C(C1CCN(C(=O)Cc3cc[n+]([O-])cc3)CC1)c1ncc(C)cc1CC2 (stereo unspecified) and answer again.
**Result** condition met

**Query** Now consider C=Cc1cnc2c(c1)CCc1cc(C)cc(OC)c1C2C1CCN(C(=O)Cc2cc[n+]([O-])cc2)CC1 (stereo unspecified) and answer again.
**Result** condition met

**Query** Now consider COc1cc(C)cc2c1[C@@H](C1CCN(C(=O)Cc3cc[n+]([O-])cc3)CC1)c1ncc(Br)cc1CC2 and answer again.
**Result** condition met

Entry source: ChEMBL document CHEMBL1131777
